// data source = patent US20240124597A1

pKd listing for selected binders.
target: T1, human-CD40-monomer protein (human, UniProt P25942 21-193, limits assumed); assay: SPR, Ab captured on protein A, hCD40 monomer 500 and 50 nM, 1:1 fit; supernatant
T1 construct: Soluble monomer generated in house, used as SPR analyte; also called hCD40; hCD40-monomer
T1 sequence (P25942 21-193 limits assumed): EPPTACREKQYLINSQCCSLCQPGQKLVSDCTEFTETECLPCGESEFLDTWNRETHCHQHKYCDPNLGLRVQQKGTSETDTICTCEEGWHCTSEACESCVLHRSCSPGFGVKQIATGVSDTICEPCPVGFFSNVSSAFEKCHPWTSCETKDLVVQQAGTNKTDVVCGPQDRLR
Please treat pKd as minus the base-10 logarithm of the molar concentration.

# annotated cases, reported pKd shown
>>> data_value("Y12XX-hz24 (antibody, human IgG1, kappa, V domains shown, Humanized, IgG1-P238K; supernatant sample) VH: QVQLVQSGAEVKKPGSSVKVSCKASGYAFTSYWMHWVRQRPGQGLEWMGQINPSNGRSQYNEKFKTRVTITADKSTSTAYMELSSLRSEDTAVYYCARWGLQPFAYWGQGTLVTVSS VL: DIQMTQSPSFLSASVGDRVTITCKASQDVSTAVAWYQQKPGKAPKLLIYSASYRYTGVPSRFSGSGSGTDFTLTISSLQPEDFATYYCQQHYSTPWTFGGGTKVEIKR")
8.36
>>> data_value("Y12XX-hz17 (antibody, human IgG1, kappa, V domains shown, Humanized, IgG1-P238K; supernatant sample) VH: QVQLVQSGAEVKKPGSSVKVSCKASGYAFTSYWMHWVRQRPGQGLEWIGFINPTTGYSEYNQKFKDRVTITADKSTSTAYMELNSLRSEDTAVYYCARWGLPPFAYWGQGTLVTVSS VL: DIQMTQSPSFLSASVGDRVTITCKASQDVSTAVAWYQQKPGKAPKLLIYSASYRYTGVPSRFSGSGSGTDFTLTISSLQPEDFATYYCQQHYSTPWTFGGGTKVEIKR")
6.68

Continue with the binder presented below.
Q: Dear colleague, please send me the reported pKd for Y12XX-hz10 (antibody, human IgG1, kappa, V domains shown, Humanized, IgG1-P238K; supernatant sample) VH: QVQLVQSGAEVKKPGSSVKVSCKASGYAFTSYWMHWVRQRPGQGLEWMGQINPSNGRSQYNEKFKTRVTITADKSTSTAYMELSSLRSEDTAVYYCARWGLQPFAYWGQGTLVTVSS VL: DIQMTQSPSSLSASVGDRVTITCKASQDVSTAVAWYQQKPGKAPKLLIYSASYRYTGVPSRFSGSGSGTDFTFTISSLQPEDIATYYCQQHYSTPWTFGGGTKVEIKR when you can.
Result: 8.44
